- assayedSystem: Ba/F3-TEL-FGFR3 cells (Homo sapiens, UniProt P22607)
- Construct: fused on or other part: P41212 (Transcription factor ETV6)
- Sequence (P22607 whole entry, change not shown, the tested form may be a part): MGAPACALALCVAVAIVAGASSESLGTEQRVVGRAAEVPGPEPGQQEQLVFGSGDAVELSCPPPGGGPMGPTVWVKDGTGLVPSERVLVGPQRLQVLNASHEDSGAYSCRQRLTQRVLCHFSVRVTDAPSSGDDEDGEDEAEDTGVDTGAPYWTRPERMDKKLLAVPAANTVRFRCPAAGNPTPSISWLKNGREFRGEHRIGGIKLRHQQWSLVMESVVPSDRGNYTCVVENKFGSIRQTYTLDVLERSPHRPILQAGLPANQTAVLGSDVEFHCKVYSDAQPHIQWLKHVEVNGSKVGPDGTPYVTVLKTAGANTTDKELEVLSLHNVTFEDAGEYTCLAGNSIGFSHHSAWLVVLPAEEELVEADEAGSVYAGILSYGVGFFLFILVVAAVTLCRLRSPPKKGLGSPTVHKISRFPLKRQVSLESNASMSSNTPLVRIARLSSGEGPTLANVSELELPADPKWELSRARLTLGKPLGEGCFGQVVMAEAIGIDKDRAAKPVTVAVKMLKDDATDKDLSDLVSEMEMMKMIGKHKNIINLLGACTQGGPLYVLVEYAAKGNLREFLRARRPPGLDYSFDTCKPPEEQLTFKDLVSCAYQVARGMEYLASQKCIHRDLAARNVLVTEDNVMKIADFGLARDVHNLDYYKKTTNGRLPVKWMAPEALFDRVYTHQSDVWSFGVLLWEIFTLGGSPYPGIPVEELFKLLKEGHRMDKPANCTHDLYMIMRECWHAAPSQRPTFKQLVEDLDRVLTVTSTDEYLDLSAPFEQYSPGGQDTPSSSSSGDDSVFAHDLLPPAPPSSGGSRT
- assayExplanation: Ba/F3-TEL-FGFR3 cell proliferation assay (Alamar Blue)
- Format: cell-based
- conditionContext: 72 hours; read-out: BaF3-TEL-FGFR3 prolif
measuredProperty: GI50 (nM)

INSERT INTO measurements (compound, assayedsystem, resultunits, recordedresult) VALUES
  ('CN1CCN(C(=O)CCON=Cc2ccn3c(-c4cccc(NC(=O)NCC(F)(F)F)c4)cnc3c2)CC1', 'Ba/F3-TEL-FGFR3 cells (Homo sapiens, UniProt P22607)', 'nM', 2200),
  ('COCCNCCON=Cc1ccn2c(-c3cccc(NC(=O)NCC(F)(F)F)c3)cnc2c1', 'Ba/F3-TEL-FGFR3 cells (Homo sapiens, UniProt P22607)', 'nM', 480),
  ('CCC(=NOC)c1ccn2c(-c3cccc(NC(=O)NCC(F)(F)F)c3)cnc2c1', 'Ba/F3-TEL-FGFR3 cells (Homo sapiens, UniProt P22607)', 'nM', 320),
  ('CN(C)CCON=Cc1ccn2c(-c3cccc(NC(=O)NCC(F)(F)F)c3)cnc2c1', 'Ba/F3-TEL-FGFR3 cells (Homo sapiens, UniProt P22607)', 'nM', 250),
  ('COCCN(CCON=Cc1ccn2c(-c3cccc(NC(=O)NCC(F)(F)F)c3)cnc2c1)Cc1ccccc1', 'Ba/F3-TEL-FGFR3 cells (Homo sapiens, UniProt P22607)', 'nM', 860),
  ('C/C(=N\OCCO)c1ccn2c(-c3cccc(NC(=O)NCC(F)(F)F)c3)cnc2c1', 'Ba/F3-TEL-FGFR3 cells (Homo sapiens, UniProt P22607)', 'nM', 110),
  ('O=C(NCC(F)(F)F)Nc1cccc(-c2cnc3cc(/C(=N/OCCO)C4CC4)ccn23)c1', 'Ba/F3-TEL-FGFR3 cells (Homo sapiens, UniProt P22607)', 'nM', 1100),
  ('CCC(=NO)c1ccn2c(-c3cccc(NC(=O)NCC(F)(F)F)c3)cnc2c1', 'Ba/F3-TEL-FGFR3 cells (Homo sapiens, UniProt P22607)', 'nM', 120),
  ('O=C(NCC(F)(F)F)Nc1cccc(-c2cnc3cc(C=NOCc4ccc(Cl)s4)ccn23)c1', 'Ba/F3-TEL-FGFR3 cells (Homo sapiens, UniProt P22607)', 'nM', 17.5),
  ('CN1CCN(CCCON=Cc2ccn3c(-c4cccc(NC(=O)NCC(F)(F)F)c4)cnc3c2)CC1', 'Ba/F3-TEL-FGFR3 cells (Homo sapiens, UniProt P22607)', 'nM', 320),
  ('O=C(NCC(F)(F)F)Nc1cccc(-c2cnc3cc(C(=NO)C4CC4)ccn23)c1', 'Ba/F3-TEL-FGFR3 cells (Homo sapiens, UniProt P22607)', 'nM', 300),
  ('CON=C(c1ccn2c(-c3cccc(NC(=O)NCC(F)(F)F)c3)cnc2c1)C1CC1', 'Ba/F3-TEL-FGFR3 cells (Homo sapiens, UniProt P22607)', 'nM', 260),
  ('O=C(NCC(F)(F)F)Nc1cccc(-c2cnc3cc(C=NOc4ncccn4)ccn23)c1', 'Ba/F3-TEL-FGFR3 cells (Homo sapiens, UniProt P22607)', 'nM', 2300),
  ('O=C(NCC(F)(F)F)Nc1cccc(-c2cnc3cc(C=NOCCCN4CCC(O)C4)ccn23)c1 (stereo not shown)', 'Ba/F3-TEL-FGFR3 cells (Homo sapiens, UniProt P22607)', 'nM', 1800),
  ('CC(C)(C)c1nc(CON=Cc2ccn3c(-c4cccc(NC(=O)NCC(F)(F)F)c4)cnc3c2)no1', 'Ba/F3-TEL-FGFR3 cells (Homo sapiens, UniProt P22607)', 'nM', 560),
  ('O=C(NCC(F)(F)F)Nc1cccc(-c2cnc3cc(C=NOCCCN4CCOCC4)ccn23)c1', 'Ba/F3-TEL-FGFR3 cells (Homo sapiens, UniProt P22607)', 'nM', 310);

====

Below is a list of entries, each paired with its recorded IC50 value.
- assayedSystem: VEGFR2 (Homo sapiens, UniProt P35968)
- Construct: purchased Upstate
- Sequence (P35968 20-1356): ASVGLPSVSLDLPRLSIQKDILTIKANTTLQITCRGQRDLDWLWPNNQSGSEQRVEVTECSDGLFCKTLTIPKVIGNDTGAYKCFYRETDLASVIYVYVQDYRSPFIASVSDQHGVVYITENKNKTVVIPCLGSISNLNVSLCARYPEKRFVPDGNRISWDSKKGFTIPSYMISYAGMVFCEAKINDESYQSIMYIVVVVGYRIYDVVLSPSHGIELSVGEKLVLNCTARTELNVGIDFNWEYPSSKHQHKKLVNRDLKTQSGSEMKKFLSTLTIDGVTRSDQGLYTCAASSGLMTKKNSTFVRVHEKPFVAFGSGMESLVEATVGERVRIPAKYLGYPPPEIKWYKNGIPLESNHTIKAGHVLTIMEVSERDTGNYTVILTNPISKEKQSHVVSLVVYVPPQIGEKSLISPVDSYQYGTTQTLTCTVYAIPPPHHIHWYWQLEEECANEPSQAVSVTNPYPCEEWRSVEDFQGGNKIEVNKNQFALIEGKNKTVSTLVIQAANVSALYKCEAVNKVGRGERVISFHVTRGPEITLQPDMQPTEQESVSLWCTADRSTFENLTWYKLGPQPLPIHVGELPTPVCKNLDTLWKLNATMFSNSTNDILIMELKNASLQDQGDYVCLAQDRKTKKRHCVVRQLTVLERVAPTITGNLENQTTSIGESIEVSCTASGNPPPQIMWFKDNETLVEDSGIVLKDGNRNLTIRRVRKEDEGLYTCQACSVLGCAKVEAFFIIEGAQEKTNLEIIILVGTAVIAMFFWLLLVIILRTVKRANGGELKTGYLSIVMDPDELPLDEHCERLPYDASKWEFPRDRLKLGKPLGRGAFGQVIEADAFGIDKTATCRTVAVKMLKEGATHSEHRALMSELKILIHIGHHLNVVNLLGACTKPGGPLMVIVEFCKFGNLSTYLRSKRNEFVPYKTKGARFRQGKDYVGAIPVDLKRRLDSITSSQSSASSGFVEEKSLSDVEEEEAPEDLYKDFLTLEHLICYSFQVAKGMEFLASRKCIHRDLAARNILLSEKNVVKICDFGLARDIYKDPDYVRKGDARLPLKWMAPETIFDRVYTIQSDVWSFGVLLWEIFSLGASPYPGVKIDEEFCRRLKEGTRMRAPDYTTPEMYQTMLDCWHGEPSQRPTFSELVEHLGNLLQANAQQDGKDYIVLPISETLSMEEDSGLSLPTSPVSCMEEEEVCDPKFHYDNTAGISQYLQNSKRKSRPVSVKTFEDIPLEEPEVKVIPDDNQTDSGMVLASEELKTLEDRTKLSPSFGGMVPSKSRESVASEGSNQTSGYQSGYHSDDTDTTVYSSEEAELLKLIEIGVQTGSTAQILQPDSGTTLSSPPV
- assayExplanation: VEGFR2 in vitro kinase inhibitory activity assay (TRF)
- Type: biochemical
- conditionContext: 0.5 μM ATP, 1 hour; read-out: VEGFR2 IC50(μM) or % I
measuredProperty: IC50 (µM)

INSERT INTO measurements (compound, signqualifier, recordedresult) VALUES
  ('CN1CCC(ON=Cc2ccn3c(-c4cccc(NC(=O)NCC(F)(F)F)c4)cnc3c2)CC1 [Compound 1-10]', '=', 0.27),
  ('CN1CCN(CCCON=Cc2ccn3c(-c4cccc(NC(=O)NCC(F)(F)F)c4)cnc3c2)CC1 [Compound 1-56]', '=', 0.38),
  ('Cc1nc(CON=Cc2ccn3c(-c4cccc(NC(=O)NCC(F)(F)F)c4)cnc3c2)cs1 [Compound 1-9]', '=', 0.68),
  ('O=C(NCC(F)(F)F)Nc1cccc(-c2cnc3cc(C=NOCc4ccco4)ccn23)c1 [Compound 1-15]', '=', 0.98),
  ('C/C(=N\OCCCO)c1ccn2c(-c3cccc(NC(=O)NCC(F)(F)F)c3)cnc2c1 [Compound 1-47]', '=', 0.051),
  ('CN(C)CCON=Cc1ccn2c(-c3cccc(NC(=O)NCC(F)(F)F)c3)cnc2c1 [Compound 1-57]', '=', 0.47),
  ('CON=C(c1ccn2c(-c3cccc(NC(=O)NCC(F)(F)F)c3)cnc2c1)C1CCC1 [Compound 1-27]', '=', 1.2),
  ('O=C(NCC(F)(F)F)Nc1cccc(-c2cnc3cc(C=NOCCCN4CCOCC4)ccn23)c1 [Compound 1-3]', '=', 0.682),
  ('CN(CCO)CCON=Cc1ccn2c(-c3cccc(NC(=O)NCC(F)(F)F)c3)cnc2c1 [Compound 1-58]', '=', 0.34),
  ('O=C(NCC(F)(F)F)Nc1cccc(-c2cnc3cc(C=NOc4ncccn4)ccn23)c1 [Compound 1-5]', '=', 0.877),
  ('CC(C)(C)c1nc(CON=Cc2ccn3c(-c4cccc(NC(=O)NCC(F)(F)F)c4)cnc3c2)no1 [Compound 1-14]', '=', 0.68),
  ('O=C(NCC(F)(F)F)Nc1cccc(-c2cnc3cc(C=NOCCOCCO)ccn23)c1 [Compound 1-7]', '=', 0.584),
  ('CN1CCN(C(=O)CCON=Cc2ccn3c(-c4cccc(NC(=O)NCC(F)(F)F)c4)cnc3c2)CC1 [Compound 1-51]', '=', 0.88),
  ('O=C(NCC(F)(F)F)Nc1cccc(-c2cnc3cc(C=NOCc4ccc(Cl)s4)ccn23)c1 [Compound 1-8]', '>', 10),
  ('COCCN(C)CCON=Cc1ccn2c(-c3cccc(NC(=O)NCC(F)(F)F)c3)cnc2c1 [Compound 1-40]', '=', 0.72),
  ('O=C(NCC(F)(F)F)Nc1cccc(-c2cnc3cc(C(=NO)C4CC4)ccn23)c1 [Compound 1-50]', '=', 0.23),
  ('COCCNCCON=Cc1ccn2c(-c3cccc(NC(=O)NCC(F)(F)F)c3)cnc2c1 [Compound 1-53]', '=', 0.81),
  ('O=C(NCC(F)(F)F)Nc1cccc(-c2cnc3cc(C=NOCCCN4CCC(O)C4)ccn23)c1 (stereo not shown) [Compound 1-38]', '=', 0.39),
  ('O=C(NCC(F)(F)F)Nc1cccc(-c2cnc3cc(C=NOCCCN4CCN(CCO)CC4)ccn23)c1 [Compound 1-39]', '=', 0.39),
  ('O=C(NCC(F)(F)F)Nc1cccc(-c2cnc3cc(C(CC4CC4)=NO)ccn23)c1 [Compound 1-30]', '=', 0.29),
  ('O=C(NCC(F)(F)F)Nc1cccc(-c2cnc3cc(C=NOCCO)ccn23)c1 [Compound 1-54]', '=', 0.62),
  ('CON=C(CC1CC1)c1ccn2c(-c3cccc(NC(=O)NCC(F)(F)F)c3)cnc2c1 [Compound 1-29]', '>', 1),
  ('COCCN(CCON=Cc1ccn2c(-c3cccc(NC(=O)NCC(F)(F)F)c3)cnc2c1)Cc1ccccc1 [Compound 1-41]', '=', 1.79),
  ('O=C(NCC(F)(F)F)Nc1cccc(-c2cnc3cc(/C(=N\OCCO)C4CC4)ccn23)c1 [Compound 1-33]', '=', 0.18),
  ('CO/N=C(\C)c1ccn2c(-c3cccc(NC(=O)NCC(F)(F)F)c3)cnc2c1 [Compound 1-22]', '=', 0.092),
  ('O=C(NCC(F)(F)F)Nc1cccc(-c2cnc3cc(C=NOCc4ccccn4)ccn23)c1 [Compound 1-6]', '=', 0.48),
  ('N=C(N)Nc1nc(CON=Cc2ccn3c(-c4cccc(NC(=O)NCC(F)(F)F)c4)cnc3c2)cs1 [Compound 1-19]', '=', 0.67),
  ('C/C(=N\O)c1ccn2c(-c3cccc(NC(=O)NCC(F)(F)F)c3)cnc2c1 [Compound 1-21]', '=', 0.03),
  ('CN(C)S(=O)(=O)N1CCN(CCCO/N=C/c2ccn3c(-c4cccc(NC(=O)NCC(F)(F)F)c4)cnc3c2)CC1 [Compound 1-63]', '=', 0.5),
  ('COCCO/N=C(\C)c1ccn2c(-c3cccc(NC(=O)NCC(F)(F)F)c3)cnc2c1 [Compound 1-45]', '=', 0.068),
  ('C/C(=N\OCCOCCO)c1ccn2c(-c3cccc(NC(=O)NCC(F)(F)F)c3)cnc2c1 [Compound 1-46]', '=', 0.068);
